Experiment: NCI Yeast Anticancer Drug Screen. Data for the rad50 strain (AID 155);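 further: 0% = growth of vehicle-only cultures of the same strain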
Settings: S. cerevisiae rad50 strain growth inhibition; at 50.0 µM; active compounds read high
The panel holds about 79,000 compounds, 15% with a hit somewhere; the sample as a whole holds those more often.
Endpoint name: growth inhibition (%)
Give your result in % as a bare value.

Recorded growth inhibition (compound CC1(C)S[C@H](CN)N[C@H]1C(=O)OC(c1ccccc1)c1ccccc1 ): -4.3

Recorded growth inhibition (compound C=CCNC(=S)N/N=C\c1cc(OC)c(OC)c(OC)c1 ): -18.8

Recorded growth inhibition (compound COc1ccc2cc1Oc1ccc(cc1)CC1c3cc(OC)c(cc3CCN1C)Oc1c(OC)c(OC)cc3c1C(C2)N(C)CC3 (centres undefined) ): -4.6

Recorded growth inhibition (compound COc1ccc(-c2coc3ccc4ccccc4c3c2=O)cc1OC ): 16

Recorded growth inhibition (compound CC(=O)CC1CCCC(CC(C)=O)N1C (centres undefined) ): -9.3

Recorded growth inhibition (compound CC(=O)c1ccc(NC(=O)/C(CC(=O)/C=C/c2ccccc2)=N/NC(N)=S)cc1 ): 37.1

Recorded growth inhibition (compound CCCCN1CCNCC1 ): 10.1

Recorded growth inhibition (compound Cc1nc2c(Cl)c(Cl)ccc2s1 ): 3.6

Recorded growth inhibition (compound Cc1ccc2c(/C=C/c3ccc(N(C)C)cc3)ccc(C(C)C)cc1-2 ): -5.4

Recorded growth inhibition (compound Nc1ccc(Nc2nc3ccccc3s2)c(O)c1 ): 22.6

Recorded growth inhibition (compound O=C(O)CCNC(=O)c1ccccc1 ): -6.2

Recorded growth inhibition (compound O=C(O)COC1CC(=O)N2c3ccccc3C34CCN5C(=O)C(=O)C(CC53)C1C24 (centres undefined) ): -1.7

Recorded growth inhibition (compound CSc1sc2cc([N+](=O)[O-])ccc2[n+]1C ): -0.4

Recorded growth inhibition (compound Cc1cc(CSC(=N)N)c(C)cc1CSC(=N)N ): -12.1

Recorded growth inhibition (compound CCCCCCCCCOCC(O)COc1ccccc1[N+](=O)[O-] (centres undefined) ): -9.2

Recorded growth inhibition (compound C=C1C(=O)O[C@@H]2C[C@@]3(C)CC(=O)C=C(C)[C@@H]3C[C@H]12 ): 12.6

Recorded growth inhibition (compound N#CC1(C#N)C2CCCCC23OC(=N)C1(C#N)C(c1ccccc1)O3 (centres undefined) ): 9.3

Recorded growth inhibition (compound CCn1c(C)nc2cc(S(=O)(=O)CS(C)(=O)=O)ccc21 ): 17

Recorded growth inhibition (compound Oc1ccccc1C=NCC1CCC(CN=Cc2ccccc2O)CC1 (centres undefined) ): 8.85

Recorded growth inhibition (compound O=[N+]([O-])c1cccc(C=Nc2cccc(C(F)(F)F)c2)c1 ): 6.95

Recorded growth inhibition (compound Nc1ccccc1CCc1ccccc1N ): 18.2

Recorded growth inhibition (compound COC(=O)/C=C\C(C#N)(C#N)N=Cc1ccsc1 ): 67.9

Recorded growth inhibition (compound COC(=O)C(=O)C(C(=O)C(=O)Nc1nc2ccc(C)cc2s1)c1nc2ccc([N+](=O)[O-])cc2[nH]c1=O (centres undefined) ): 56.1

Recorded growth inhibition (compound NC(=S)Nc1[nH]c(=S)nc2c1SC1=N/C(=C\c3ccco3)C(=O)N12 ): 7.45

====

I'd appreciate it if you could supply growth inhibition values for the items below.
Assay: NCI Yeast Anticancer Drug Screen. Data for the sgs1 mgt1 strain (AID 161);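 further: 0% = growth of cultures given vehicle only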
Conditions: S. cerevisiae sgs1 mgt1 strain, at 50.0 µM, active compounds read high
This is part of a sample that, as a whole, favours compounds with a hit. Of some 79,000 tested, about 15% had one in any assay.
Give your result in % as a bare value.

Recorded growth inhibition (compound Fc1ccc(Nc2nc(Cl)c3[nH]cnc3n2)cc1Cl ): 27.6

Recorded growth inhibition (compound CN(C)c1ccc(/C=N/n2c(-c3ccccc3)nc3ccccc3c2=O)cc1 ): 43.8

Recorded growth inhibition (compound C/C=C1\NC(=O)[C@H]2CSSCCC=C[C@H](CC(=O)N[C@H](C(C)C)C(=O)N2)OC(=O)[C@H](C(C)C)NC1=O ): 26.1

Recorded growth inhibition (compound COc1cc2c(cc1-c1coc3cc(O)ccc3c1=O)OCO2 ): -15.6

Recorded growth inhibition (compound COC(=O)c1ccc(NC(=O)O/N=C(\Cl)C(C)C)cc1 ): 59.7

Recorded growth inhibition (compound C=C1C(=O)O[C@@H]2C[C@@]3(C)CC(=O)C=C(C)[C@@H]3C[C@H]12 ): -7.2

Recorded growth inhibition (compound COc1cc2c3cc1Oc1c(OC)c(OC)cc4c1C(Cc1ccc(O)c(c1)-c1cc(ccc1OC)CC3N(C)CC2)N(C)CC4 (stereo not given) ): -2.15

Recorded growth inhibition (compound O=C1c2ccccc2-c2c1c1ccccc1c(=O)n2CCO ): 60.4

Recorded growth inhibition (compound N#CCCOc1ccccc1 ): -9.9

Recorded growth inhibition (compound Clc1c(Cl)c(Cl)c2nn(C3CCCO3)nc2c1Cl (stereo not given) ): -5.9
